Molecular target: VEGF receptor KDR (VEGFR2) (Homo sapiens)
Sequence (P35968 806-1356): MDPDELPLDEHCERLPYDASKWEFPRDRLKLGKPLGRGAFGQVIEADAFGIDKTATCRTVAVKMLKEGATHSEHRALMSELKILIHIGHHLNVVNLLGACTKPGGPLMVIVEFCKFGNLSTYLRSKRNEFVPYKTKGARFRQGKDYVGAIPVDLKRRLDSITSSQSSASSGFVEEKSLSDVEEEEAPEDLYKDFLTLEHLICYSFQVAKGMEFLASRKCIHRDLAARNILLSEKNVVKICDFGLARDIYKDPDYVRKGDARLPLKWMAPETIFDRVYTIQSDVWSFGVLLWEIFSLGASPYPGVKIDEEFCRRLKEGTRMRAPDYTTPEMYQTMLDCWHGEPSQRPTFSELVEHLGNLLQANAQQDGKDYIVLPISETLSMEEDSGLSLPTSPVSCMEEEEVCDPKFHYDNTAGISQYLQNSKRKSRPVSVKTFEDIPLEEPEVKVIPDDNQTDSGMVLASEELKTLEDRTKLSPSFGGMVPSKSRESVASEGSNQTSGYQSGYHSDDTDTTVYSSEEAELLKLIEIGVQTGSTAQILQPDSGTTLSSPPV
Test: In vitro receptor tyrosine kinase assay (VEGF receptor KDR), DELFIA
Conditions: recombinant GST-VEGFR2 (806-1356), ATP 0.6 uM, enzyme 5 nM; read-out: VEGFR_IC50_UM
Method: In Vitro Receptor Tyrosine Kinase Assay (VEGF receptor KDR) This test measures the ability of compounds to inhibit the enzymatic activity of recombinant human VEGF receptor enzymatic activity. […] Inhibition of VEGFR/KDR is measured in a DELFIATM assay (Perkin Elmer). […] Phosphorylated product is detected by incubation with Europium-labeled anti-phosphotyrosine MoAb. After washing the plates, bound MoAb is detected by time-resolved fluorescence in a Gemini SpectraMax reader (Molecular Devices). […]
Response field label: string, one of class 1 (IC50 strictly below 7 nM) or class 0.

Compound	Group
C[C@H](O)CN1CCN(Cc2ccc(-c3cc4nccc(Oc5ccc(NC(=O)NC6CC6)cc5F)c4s3)nc2)CC1 [Compound 30]	class 1
C[C@@H]1CN(Cc2ccc(-c3cc4nccc(Oc5ccc(NC(=O)NC6CC6)cc5F)c4s3)nc2)CCN1CCO [Compound 119]	class 0
O=C(Nc1ccc(Oc2ccnc3cc(-c4ccc(CN5CCN(C(=O)CS)CC5)cn4)sc23)c(F)c1)NC1CC1 [Compound 114]	class 0
CCCC(=O)OCC(=O)N1CCN(Cc2ccc(-c3cc4nccc(Oc5ccc(NC(=O)NC6CC6)cc5F)c4s3)nc2)CC1 [Compound 79]	class 0
O=C(Nc1ccc(Oc2ccnc3cc(-c4ccc(CN5CCCC(C(=O)N6CC[C@H](O)C6)C5)cn4)sc23)c(F)c1)NC1CC1 (some centres unmarked) [Compound 8]	class 1
COCCOC(=O)N1CCN(Cc2ccc(-c3cc4nccc(Oc5ccc(NC(=O)NC6CC6)cc5F)c4s3)nc2)CC1 [Compound 76]	class 0
